study.system: CBX7 chromodomain (Homo sapiens, UniProt O95931)
Sequence (O95931 1-62): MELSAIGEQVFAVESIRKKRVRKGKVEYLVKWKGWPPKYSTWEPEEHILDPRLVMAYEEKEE
test.details: Electrophoretic mobility shift assay
Format: biochemical
measurement.parameters: EMSA, 150 mM CBX7 and 100 nM FAM-dsDNA probe, 1:3 ratio of compound to CBX7
Square brackets hold non-standard residues; d marks the D form. Peptide text beside a SMILES is read from it. * marks the point of attachment. Benzoyl(4-tBu) = CC(C)(C)c1ccc(C(=O)*)cc1; Lys(Et2) = CCN(CC)CCCC[C@H](N)C(=O)O; NMeA = CN[C@@H](C)C(=O)O
outcome.measure: effect on FAM-dsDNA binding to CBX7

molecule: CCN(CC)CCCC[C@H](NC(=O)[C@H](CC(C)C)NC(=O)[C@H](C)N(C)C(=O)[C@H](Cc1ccccc1)NC(=O)c1ccc(C(C)(C)C)cc1)C(=O)N[C@@H](CO)C(=O)OC [UNC4219, reference compound] ({Benzoyl(4-tBu)}-F[NMeA]L[Lys(Et2)]S-OMe)
study.system: CBX7 chromodomain (Homo sapiens, UniProt O95931)
observed.measurement: no effect

molecule: COc1cccc(C(=O)N2CCN(C(=O)COc3cccc(C)c3)CC2)c1OC [MS452, reference compound]
study.system: CBX7 chromodomain (Homo sapiens, UniProt O95931)
observed.measurement: no effect

---

study.system: CBX7 (Mus musculus)
Sequence (Q8VDS3 2-69 limits assumed): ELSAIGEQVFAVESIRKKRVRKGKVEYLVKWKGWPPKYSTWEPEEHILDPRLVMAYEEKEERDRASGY
test.details: Polycomb in-vivo Assay
Numbered stars: 1 amine (or outer) side, 2 acyl side, 3 side chain; on linkers, the order of the positions; unused ones are H or OH. Square brackets hold non-standard residues; d marks the D form. Peptide text beside a SMILES is read from it. * marks the point of attachment. Lys(Me,2-norbornyl) = CN(CCCC[C@H](N)C(=O)O)C1CC2CCC1C2; X5 = CN(CCCC[C@H](N[*:1])C(=O)[*:2])Cc1ccc(F)cc1; Benzoyl(4-tBu) = CC(C)(C)c1ccc(C(=O)*)cc1; X9 = O=C([C@H](CCCCN1CCCCC1)N[*:1])[*:2]; Lys(Et2) = CCN(CC)CCCC[C@H](N)C(=O)O; Lys(Me2) = CN(C)CCCC[C@H](N)C(=O)O
outcome.measure: EC50 (µM)
Could you give me the number in µM? Just the number is fine.

Noted for COC(=O)[C@H](CO)NC(=O)[C@H](CCCCN1CCCCC1)NC(=O)[C@H](CC(C)C)NC(=O)[C@H](C)NC(=O)[C@H](Cc1ccccc1)NC(=O)c1ccc(C(C)(C)C)cc1 [UNC6374] ({Benzoyl(4-tBu)}-FAL[X9]S-OMe) : its EC50 reads 33.1

Noted for COC(=O)[C@H](CO)NC(=O)[C@H](CCCCN(C)C)NC(=O)[C@H](CC(C)C)NC(=O)[C@H](C)NC(=O)[C@H](Cc1ccccc1)NC(=O)c1ccc(C(C)(C)C)cc1 [UNC5352] ({Benzoyl(4-tBu)}-FAL[Lys(Me2)]S-OMe) : its EC50 reads 105

Noted for COC(=O)[C@H](CO)NC(=O)[C@H](CCCCN(C)C1CC2CCC1C2)NC(=O)[C@H](CC(C)C)NC(=O)[C@H](C)NC(=O)[C@H](Cc1ccccc1)NC(=O)c1ccc(C(C)(C)C)cc1 (stereo partly drawn) [UNC4976] ({Benzoyl(4-tBu)}-FAL[Lys(Me,2-norbornyl)]S-OMe) : its EC50 reads 3.21

Noted for CCN(CC)CCCC[C@H](NC(=O)[C@H](CC(C)C)NC(=O)[C@H](C)NC(=O)[C@H](Cc1ccccc1)NC(=O)c1ccc(C(C)(C)C)cc1)C(=O)N[C@@H](CO)C(=O)OC [UNC3866] ({Benzoyl(4-tBu)}-FAL[Lys(Et2)]S-OMe) : its EC50 reads 41.7

Noted for COC(=O)[C@H](CO)NC(=O)[C@H](CCCCN(C)Cc1ccc(F)cc1)NC(=O)[C@H](CC(C)C)NC(=O)[C@H](C)NC(=O)[C@H](Cc1ccccc1)NC(=O)c1ccc(C(C)(C)C)cc1 [UNC6376] ({Benzoyl(4-tBu)}-FAL[X5]S-OMe) : its EC50 reads 2.22

Reference for the values: paper PMC6800648
